The reported measurements were obtained from the supplement of paper PMC6555819.

System: RARb homodimer (NR concentration 270 nM)
Test: PBM binding z-score (relative to random genomic background probes); higher = stronger binding; sequences stand for … in GC…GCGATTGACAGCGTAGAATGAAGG
recorded.metric: PBM binding z-score

sequence_text=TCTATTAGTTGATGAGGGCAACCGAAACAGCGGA target_or_system="RARb homodimer (NR concentration 270 nM)" reported_result=1.27
sequence_text=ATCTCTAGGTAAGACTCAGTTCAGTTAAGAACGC target_or_system="RARb homodimer (NR concentration 270 nM)" reported_result=0.724
sequence_text=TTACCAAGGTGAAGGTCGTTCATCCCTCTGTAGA target_or_system="RARb homodimer (NR concentration 270 nM)" reported_result=2.21
sequence_text=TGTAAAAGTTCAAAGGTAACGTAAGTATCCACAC target_or_system="RARb homodimer (NR concentration 270 nM)" reported_result=3.5
sequence_text=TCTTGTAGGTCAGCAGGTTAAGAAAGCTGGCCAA target_or_system="RARb homodimer (NR concentration 270 nM)" reported_result=3.05
sequence_text=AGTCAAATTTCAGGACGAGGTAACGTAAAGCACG target_or_system="RARb homodimer (NR concentration 270 nM)" reported_result=0.179
sequence_text=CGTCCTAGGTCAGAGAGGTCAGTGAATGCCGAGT target_or_system="RARb homodimer (NR concentration 270 nM)" reported_result=4.71
sequence_text=ATCTCTAGGTAAACGTTCAGTGAATCCCGAGGAT target_or_system="RARb homodimer (NR concentration 270 nM)" reported_result=-0.498
sequence_text=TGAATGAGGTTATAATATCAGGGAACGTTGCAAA target_or_system="RARb homodimer (NR concentration 270 nM)" reported_result=0.41
sequence_text=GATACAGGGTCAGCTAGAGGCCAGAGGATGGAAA target_or_system="RARb homodimer (NR concentration 270 nM)" reported_result=3.55
sequence_text=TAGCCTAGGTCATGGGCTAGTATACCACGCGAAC target_or_system="RARb homodimer (NR concentration 270 nM)" reported_result=2.79
sequence_text=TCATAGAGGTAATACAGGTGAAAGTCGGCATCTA target_or_system="RARb homodimer (NR concentration 270 nM)" reported_result=0.233
sequence_text=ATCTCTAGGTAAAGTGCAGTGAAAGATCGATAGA target_or_system="RARb homodimer (NR concentration 270 nM)" reported_result=0.108
sequence_text=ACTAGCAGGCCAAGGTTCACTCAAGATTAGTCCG target_or_system="RARb homodimer (NR concentration 270 nM)" reported_result=1.66
